# System: Klebsiella pneumoniae
# Format: cell-based
Bridge positions count the residues as written; N and C are the ends. Square brackets hold non-standard residues; d marks the D form. Peptide text beside a SMILES is read from it. * marks the point of attachment. ξ: configuration not given here. dBip = N[C@H](Cc1ccc(-c2ccccc2)cc1)C(=O)O; X3 = CCCCCCCCN1CCNC[C@H]1C(=O)*; Thr(3ξ) = CC(O)[C@H](N)C(=O)O; Dab = NCC[C@H](N)C(=O)O
quantity-name: MIC K. pneumoniae ATCC 4352 (µg/mL)
Report the figure in µg/mL without appending any unit label.

[
  {
    "compound": "CCCCCCCCN1CCNC[C@H]1C(=O)N[C@H](C(=O)N[C@@H](CCN)C(=O)N[C@H]1CCNC(=O)[C@H]([C@@H](C)O)NC(=O)[C@H](CCN)NC(=O)[C@H](CCN)NC(=O)[C@H](CC(C)C)NC(=O)[C@@H](Cc2ccc(-c3ccccc3)cc2)NC(=O)[C@H](CCN)NC1=O)C(C)O (some centres unmarked) [Example 6] (X3-[Thr(3ξ)][Dab][Dab][Dab][dBip]L[Dab][Dab]T; lactam 3-C)",
    "quantity-name": "MIC K. pneumoniae ATCC 4352",
    "reading": 1
  }
]

Let us examine a further case.
Lookup: # return recorded MIC K. pneumoniae ATCC 4352 for entry CCCCCC/C=C/c1ccc(C[C@H]2NC(=O)[C@H](CCN)NC(=O)[C@@H](NC(=O)[C@H](CN)NC(=O)[C@@H](NC(=O)C3CNCC(CC(C)C)C3)C(C)O)CCNC(=O)[C@H]([C@@H](C)O)NC(=O)[C@H](CCN)NC(=O)[C@H](CCN)NC(=O)[C@H](CC(C)C)NC2=O)cc1 (single isomer, unassigned; isomer 1) [Example 17]
Found: 2

Cited source for all entries: patent US12146004B2
